Test: HepG2 cytotoxicity, primary screen, cytotoxicity control for P. falciparum antimalarial project, cell-based, ATP luminescence (AID 2303);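 note: 0% = DMSO wells and 100% = digitonin-killed cells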
Conditions: HepG2 viability, 24-48 h, at 10 µM, hits give high values
Activity calls are given as the source filed them.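 Rule for the calls: active = inhibition above 50%; inactive = the rest.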
The entries below come with measured inhibition values attached.
EXPERIMENTAL_READOUT: inhibition

COc1ccccc1C1CC(c2ccc(C)cc2)=NN1C(=O)c1ccccc1 (stereo not drawn); 37% (inactive)
Cc1cccc2[nH]c(-c3cccc(-c4ccc(C(=O)NCCc5ccc(O)c(=O)[nH]5)cc4)c3)nc12; 20% (inactive)
CCOc1ccc(N(CC)S(=O)(=O)c2cc(Br)cc3c2N(C(=O)C2CC2)CC3)cc1; -4% (inactive)
CCOC(=O)N/N=C/[C@H](CCc1ccccc1)NC(=O)[C@H](CC(C)C)NC(=O)c1cc2cccc(OC)c2o1; 3% (inactive)
Cc1cc(NN=Cc2ccccc2)c2cc(C(F)(F)F)ccc2n1; 30% (inactive)
O=C(Nc1ccc(-c2cccc(-c3nc4ccccc4[nH]3)c2)cc1)Nc1ccc(F)c(F)c1F; 74% (active)
O=C(c1c(-c2[nH]c3ccccc3c2C(=O)C(F)(F)F)[nH]c2ccccc12)C(F)(F)F; 18% (inactive)
Cc1cccn2c(=O)c3cc(C(=O)NCCc4ccccc4)c(=N)n(CCCOC(C)C)c3nc12; 19% (inactive)
CC(C)CNCc1cccc(-c2ccc(CN(CCCN3CCN(C)CC3)C(=O)CCC3CCCC3)cc2)c1; 82% (active)
CCCCCNc1nc(Nc2ccccc2C)nc2ccccc12; 5% (inactive)
O=C(C=Cc1ccc(Cl)c(Cl)c1)NCCCCCN1CCC(CCNC(=O)/C=C/c2ccccc2)CC1; 25% (inactive)
O=C(c1ccccc1N=Nc1c(-c2ccccc2)[nH]n(-c2ccccc2)c1=O)N1CCOCC1; 0% (inactive)
Cc1cc2nc(-c3cccc(C(=O)NC4CCN(Cc5ccccc5)CC4)c3)[nH]c2cc1C; 32% (inactive)
CN1CCC(C(=O)N(Cc2ccc(-c3ccc(CNCCc4ccc(S(C)(=O)=O)cc4)cn3)cc2)C2CCN(Cc3ccccc3)CC2)CC1; 11% (inactive)
CN(C)c1cccc2c1nc(-c1ccco1)n2CC1CCCN1 (stereo not drawn); -1% (inactive)
O=C(Nc1cccc(CN2CCCN(Cc3ncc[nH]3)CC2)c1)c1ccc(Cl)c(Cl)c1; 8% (inactive)
Fc1cccc(Cl)c1-c1nc(NCCC(c2ccccc2)c2ccccc2)no1; 4% (inactive)
Cc1nc2ccc3ccc(CNc4ccc(C(=O)N[C@@H](CCC(=O)O)C(=O)N[C@@H](Cc5cccs5)C(=O)O)c(F)c4)cc3c2c(=O)[nH]1; 43% (inactive)
O=C(Cn1c(SCc2cccc(F)c2F)cc(=O)c2ccccc21)N(CCc1cnc[nH]1)Cc1ccc(-c2ccc(C(F)(F)F)cc2)cc1; 18% (inactive)
Nc1c2c(nc3ccc(C(=O)Nc4cc(I)c(O)c(I)c4)cc13)CCCC2; 14% (inactive)
COc1ccc(C(=O)C2CCN(CCCCNC(=O)c3ccc(NC(=O)c4ccc(Cl)cc4)cc3)CC2)c(OC)c1; 47% (inactive)
Cc1cccc2nc(C(=O)Nc3nc(CN4CCC(C)CC4)cs3)cn12; -27% (inactive)
O=c1cc(NCCCNCc2cc(Cl)c(Cl)cc2Cl)[nH]c2ccccc12; 7% (inactive)
COc1cccc(Nc2nc(C)cc(NC3CCCC3)n2)c1; 41% (inactive)
CC(=O)Nc1ccc(S(=O)(=O)Nc2c(C)cc(Cc3cnc(N)nc3N)cc2C)cc1; 6% (inactive)
CN1CCC(Oc2ccc(CN3CC[C@H](NC(=O)c4ccc(F)c(F)c4)C3)c3ccccc23)C1 (stereo partly drawn); 20% (inactive)
Cc1cc(N2CCC(NS(=O)(=O)c3cccc4cccnc34)CC2)nc(Nc2cccc(C#N)c2)n1; 12% (inactive)
O=C(Nc1ccc2c(c1)CCN2C1CCN(Cc2cc(F)cc(F)c2F)C1)c1ccco1 (stereo not drawn); -2% (inactive)
CC1CCCCC1N(C)C1CCN(CCCNC(=O)C=Cc2cccc(C(F)(F)F)c2)CC1 (stereo not drawn); 47% (inactive)
O=S(=O)(Nc1cccc(F)c1CNCc1ccccn1)c1ccc(Cl)c(Cl)c1; 45% (inactive)
O=C(NC1CCN(Cc2ccccc2)CC1)c1ccc(-c2nc3cc4ccccc4cc3[nH]2)s1; 13% (inactive)
CCCCN(CCCC)CCNC(=O)c1cccc(NC(=O)N2CCc3cc(SC)c(C(F)(F)F)cc32)c1; 15% (inactive)
CC(Sc1nc(-c2ccccc2)c(-c2ccccc2)o1)C(=O)NC1CC1 (stereo not drawn); 13% (inactive)
O=C(Nc1ccc(-c2ccccc2)cc1)Nc1cccc(Cn2nc(Cl)c(N3CCNCC3)cc2=O)c1; 15% (inactive)
Cc1cc2[nH]c(-c3ccc(C(=O)NCCCN4CCN(c5cccc(Cl)c5)CC4)cc3F)nc2cc1Cl; -2% (inactive)
Oc1ccc(CN2Cc3ccccc3OC3(CCN(Cc4c[nH]c5cnccc45)CC3)C2)cc1; 17% (inactive)
O=C(Nc1cccc(CN2CCCN(Cc3ccc(O)cc3)CC2)c1)c1ccc2ccccc2n1; 13% (inactive)
COc1ccc(C=Cc2cc(N)c3ccccc3n2)cc1; 38% (inactive)
